assay: Cell viability in mouse Neuro 2a cells at 750 uM after 48 hrs by MTT assay relative to control; type: cell-based, N2a; settings: read-out: Activity
# note: boundary value 80% maps to F; viability at 48 h, 750 µM below it maps to T

CNC(=O)c1ccc[n+]([C@@H]2O[C@H](CO)[C@@H](O)[C@H]2O)c1	T

Please let me know if `CN(C)C(=O)c1ccc[n+]([C@@H]2O[C@H](CO)[C@@H](O)[C@H]2O)c1` shows viability at 48 h, 750 µM below 80%.
T

Note, next up: `COC(=O)c1ccc[n+]([C@@H]2O[C@H](CO)[C@@H](O)[C@H]2O)c1`
T

Note, next up: `CCNC(=O)c1ccc[n+]([C@@H]2O[C@H](CO)[C@@H](O)[C@H]2O)c1`
T

---

viability at 48 h, 750 µM values by entry
assay: Cell viability in HEK293 cells at 750 uM after 48 hrs by MTT assay relative to control; assay type: cell-based; conditions: human, read-out: Activity
Write down the numeric answer in % and omit the unit.

Solved entries (count: 3):
O=C(O)c1ccc[n+]([C@@H]2O[C@H](CO)[C@@H](O)[C@H]2O)c1	92
CN(C)C(=O)c1ccc[n+]([C@@H]2O[C@H](CO)[C@@H](O)[C@H]2O)c1	78
CCNC(=O)c1ccc[n+]([C@@H]2O[C@H](CO)[C@@H](O)[C@H]2O)c1	48

Could you share which viability at 48 h, 750 µM value was measured for `C=CCNC(=O)c1ccc[n+]([C@@H]2O[C@H](CO)[C@@H](O)[C@H]2O)c1` ?
78

Note, next up: `O=C(NCCO)c1ccc[n+]([C@@H]2O[C@H](CO)[C@@H](O)[C@H]2O)c1`
77

Note, next up: `CNC(=O)c1ccc[n+]([C@@H]2O[C@H](CO)[C@@H](O)[C@H]2O)c1`
72

Note, next up: NC(=O)c1ccc[n+]([C@@H]2O[C@H](CO)[C@@H](O)[C@H]2O)c1 [NICOTINAMIDE RIBOSIDE]
111

Note, next up: `CCOC(=O)c1ccc[n+]([C@@H]2O[C@H](CO)[C@@H](O)[C@H]2O)c1`
92

Note, next up: `COC(=O)c1ccc[n+]([C@@H]2O[C@H](CO)[C@@H](O)[C@H]2O)c1`
94

---

test: Cell viability in mouse AB1 cells at 750 uM after 48 hrs by MTT assay relative to control; format: cell-based; conditions: read-out: Activity
parameterMeasured: viability at 48 h, 750 µM (%)
Write down the numeric answer in % and omit the unit.

Could you share which viability at 48 h, 750 µM value was measured for `O=C(O)c1ccc[n+]([C@@H]2O[C@H](CO)[C@@H](O)[C@H]2O)c1` ?
111

Note, next up: NC(=O)c1ccc[n+]([C@@H]2O[C@H](CO)[C@@H](O)[C@H]2O)c1 [NICOTINAMIDE RIBOSIDE]
123

Note, next up: `CNC(=O)c1ccc[n+]([C@@H]2O[C@H](CO)[C@@H](O)[C@H]2O)c1`
79

Note, next up: `COC(=O)c1ccc[n+]([C@@H]2O[C@H](CO)[C@@H](O)[C@H]2O)c1`
125

Note, next up: `CN(C)C(=O)c1ccc[n+]([C@@H]2O[C@H](CO)[C@@H](O)[C@H]2O)c1`
132

The values you see were collected from ChEMBL document CHEMBL1138359.
